Target: WT-CFTR (Homo sapiens, UniProt P13569)
Test: Inside-out patch-clamp of CFTR currents in transfected CHO cells
MEASURED METRIC: pEC50
// scale note: pEC50 = -log10(conc_M); give the bare number

Kindly note the recorded pEC50 for `CC1(C)Cc2c(sc(NC(=O)c3ccn[nH]3)c2C(N)=O)C(C)(C)O1` , which is 6.59

====

Target: S182A-CFTR (Homo sapiens, UniProt P13569, S182A)
Test: Inside-out patch-clamp of CFTR currents in transfected CHO cells
MEASURED METRIC: EC50 (nM)
Just the number in nM, nothing appended.

The molecule identified as CC1(C)Cc2c(sc(NC(=O)c3ccn[nH]3)c2C(N)=O)C(C)(C)O1 [GLPG1837] registered its EC50 at 220

====

Target: Y304F-CFTR (Homo sapiens, UniProt P13569, Y304F)
Sequence (P13569 whole entry Y304F): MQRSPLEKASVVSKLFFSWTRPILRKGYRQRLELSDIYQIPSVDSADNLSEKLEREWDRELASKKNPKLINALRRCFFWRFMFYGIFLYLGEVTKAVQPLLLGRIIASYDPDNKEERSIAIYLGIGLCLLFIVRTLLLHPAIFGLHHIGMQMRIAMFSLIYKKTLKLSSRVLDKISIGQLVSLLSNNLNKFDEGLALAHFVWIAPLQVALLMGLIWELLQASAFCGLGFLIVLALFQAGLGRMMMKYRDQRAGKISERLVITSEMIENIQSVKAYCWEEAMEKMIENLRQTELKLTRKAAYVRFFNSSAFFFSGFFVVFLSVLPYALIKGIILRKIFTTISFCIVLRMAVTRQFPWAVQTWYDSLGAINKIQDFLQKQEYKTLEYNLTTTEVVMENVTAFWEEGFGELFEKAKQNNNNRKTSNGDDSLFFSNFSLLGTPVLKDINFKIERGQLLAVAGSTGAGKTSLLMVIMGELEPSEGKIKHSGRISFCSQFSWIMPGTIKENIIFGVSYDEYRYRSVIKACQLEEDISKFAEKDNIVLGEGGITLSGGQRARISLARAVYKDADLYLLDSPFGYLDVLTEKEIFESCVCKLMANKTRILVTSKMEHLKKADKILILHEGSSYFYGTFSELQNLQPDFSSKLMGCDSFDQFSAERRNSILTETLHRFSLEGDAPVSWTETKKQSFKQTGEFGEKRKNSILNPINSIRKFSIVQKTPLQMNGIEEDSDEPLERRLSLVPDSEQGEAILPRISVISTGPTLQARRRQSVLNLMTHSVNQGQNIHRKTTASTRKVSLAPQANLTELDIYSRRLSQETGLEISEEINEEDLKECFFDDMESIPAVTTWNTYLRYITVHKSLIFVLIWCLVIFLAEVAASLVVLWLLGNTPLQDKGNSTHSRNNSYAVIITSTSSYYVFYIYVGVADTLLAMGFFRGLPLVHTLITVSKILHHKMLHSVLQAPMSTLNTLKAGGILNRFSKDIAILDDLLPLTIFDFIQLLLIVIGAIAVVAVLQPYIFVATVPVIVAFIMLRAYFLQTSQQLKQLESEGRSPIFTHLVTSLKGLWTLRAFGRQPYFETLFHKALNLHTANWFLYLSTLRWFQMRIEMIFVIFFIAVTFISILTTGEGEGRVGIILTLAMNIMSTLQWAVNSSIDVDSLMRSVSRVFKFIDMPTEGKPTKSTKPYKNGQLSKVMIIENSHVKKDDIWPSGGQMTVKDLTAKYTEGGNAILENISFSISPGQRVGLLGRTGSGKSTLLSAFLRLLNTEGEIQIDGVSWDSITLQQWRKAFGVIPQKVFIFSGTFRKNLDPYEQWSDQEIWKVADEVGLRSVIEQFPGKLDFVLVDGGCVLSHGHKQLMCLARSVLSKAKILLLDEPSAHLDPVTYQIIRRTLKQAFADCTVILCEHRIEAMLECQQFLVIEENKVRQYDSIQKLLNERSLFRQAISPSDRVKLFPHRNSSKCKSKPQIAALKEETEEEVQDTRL
Experiment: Inside-out patch-clamp of CFTR currents in transfected CHO cells
MEASURED METRIC: pEC50
Convention used: pEC50 is expressed as -log10 of the molar concentration.

Recorded result, `CC1(C)Cc2c(sc(NC(=O)c3ccn[nH]3)c2C(N)=O)C(C)(C)O1` , pEC50: 5.64

====

Target: N1138F/G551D-CFTR (Homo sapiens, UniProt P13569, G551D/N1138F)
Assay: Inside-out patch-clamp of CFTR currents in transfected CHO cells
MEASURED METRIC: pEC50
# pEC50: negative log10 of molar concentration; output just the value

Item: CC1(C)Cc2c(sc(NC(=O)c3ccn[nH]3)c2C(N)=O)C(C)(C)O1 [GLPG1837] | pEC50: 6.80

====

Biological target: F304Y-mCFTR (Mus musculus, UniProt P26361, F304Y)
Sequence (P26361 whole entry F304Y): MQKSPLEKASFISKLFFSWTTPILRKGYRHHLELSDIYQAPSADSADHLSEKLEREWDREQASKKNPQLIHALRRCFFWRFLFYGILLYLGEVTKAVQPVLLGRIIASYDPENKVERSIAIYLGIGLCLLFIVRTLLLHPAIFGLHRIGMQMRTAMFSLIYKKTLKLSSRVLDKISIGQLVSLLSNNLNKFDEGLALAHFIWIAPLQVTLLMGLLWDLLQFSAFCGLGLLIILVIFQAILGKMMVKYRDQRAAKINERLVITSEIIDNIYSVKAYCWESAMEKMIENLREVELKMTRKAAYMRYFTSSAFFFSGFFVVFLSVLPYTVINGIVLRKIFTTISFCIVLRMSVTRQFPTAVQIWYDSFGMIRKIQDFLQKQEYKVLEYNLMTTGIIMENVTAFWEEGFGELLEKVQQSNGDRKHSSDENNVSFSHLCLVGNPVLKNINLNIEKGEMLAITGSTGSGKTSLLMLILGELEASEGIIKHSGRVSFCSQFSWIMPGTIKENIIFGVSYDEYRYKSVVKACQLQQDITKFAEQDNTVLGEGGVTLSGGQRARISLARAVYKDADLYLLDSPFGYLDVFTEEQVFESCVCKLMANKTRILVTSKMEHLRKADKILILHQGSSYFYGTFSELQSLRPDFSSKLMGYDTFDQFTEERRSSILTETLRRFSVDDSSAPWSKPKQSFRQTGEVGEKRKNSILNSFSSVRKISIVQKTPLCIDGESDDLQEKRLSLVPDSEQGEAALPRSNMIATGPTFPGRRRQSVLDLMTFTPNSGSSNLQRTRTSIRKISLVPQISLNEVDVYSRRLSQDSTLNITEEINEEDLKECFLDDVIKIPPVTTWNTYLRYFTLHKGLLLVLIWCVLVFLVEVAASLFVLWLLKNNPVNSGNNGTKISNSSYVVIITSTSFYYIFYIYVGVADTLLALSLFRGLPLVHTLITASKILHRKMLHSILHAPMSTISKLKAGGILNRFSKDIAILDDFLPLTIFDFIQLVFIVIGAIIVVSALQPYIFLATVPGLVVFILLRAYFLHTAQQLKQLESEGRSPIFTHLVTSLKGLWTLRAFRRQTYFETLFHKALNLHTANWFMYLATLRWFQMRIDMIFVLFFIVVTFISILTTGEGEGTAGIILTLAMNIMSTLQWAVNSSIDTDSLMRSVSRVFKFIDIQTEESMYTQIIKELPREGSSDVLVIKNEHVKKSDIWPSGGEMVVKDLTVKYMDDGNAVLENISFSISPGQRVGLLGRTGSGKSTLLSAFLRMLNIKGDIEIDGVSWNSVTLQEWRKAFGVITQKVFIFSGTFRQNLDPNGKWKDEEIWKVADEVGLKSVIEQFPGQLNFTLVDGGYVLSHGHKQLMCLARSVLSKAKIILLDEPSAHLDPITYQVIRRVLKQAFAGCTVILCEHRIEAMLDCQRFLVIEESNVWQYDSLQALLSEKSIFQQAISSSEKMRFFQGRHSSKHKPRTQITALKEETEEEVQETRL
Assay: Inside-out patch-clamp of CFTR currents in transfected CHO cells
MEASURED METRIC: pEC50
Please report pEC50 as the negative decimal logarithm of the molar concentration, giving only the number.

Notebook: `CC1(C)Cc2c(sc(NC(=O)c3ccn[nH]3)c2C(N)=O)C(C)(C)O1` , pEC50 read as 6.17

====

Target: D993A-CFTR (Homo sapiens, UniProt P13569, D993A)
Sequence (P13569 whole entry D993A): as the sequence (P13569 whole entry Y304F) above, with F304Y, D993A counted along it
Assay: Inside-out patch-clamp of CFTR currents in transfected CHO cells
MEASURED METRIC: EC50 (µM)
Please state the figure in µM; there is no need to write the unit.

// recorded EC50 for CC1(C)Cc2c(sc(NC(=O)c3ccn[nH]3)c2C(N)=O)C(C)(C)O1 [GLPG1837] : 0.36

====

Molecular target: Y304T-CFTR (Homo sapiens, UniProt P13569, Y304T)
Sequence (P13569 whole entry Y304T): as the sequence (P13569 whole entry Y304F) above, with F304T counted along it
Test: Inside-out patch-clamp of CFTR currents in transfected CHO cells
MEASURED METRIC: EC50

Noted EC50 for `CC1(C)Cc2c(sc(NC(=O)c3ccn[nH]3)c2C(N)=O)C(C)(C)O1` , tested on Y304T-CFTR (Homo sapiens, UniProt P13569, Y304T): > 3 µM

====

Biological target: T360A-CFTR (Homo sapiens, UniProt P13569, T360A)
Assay: Inside-out patch-clamp of CFTR currents in transfected CHO cells
MEASURED METRIC: EC50
Show the value, then the unit it is measured in.

Please fill in: EC50 reported for `CC1(C)Cc2c(sc(NC(=O)c3ccn[nH]3)c2C(N)=O)C(C)(C)O1` = 120 nM

====

Molecular target: S1141T/G551D-CFTR (Homo sapiens, UniProt P13569, G551D/S1141T)
Sequence (P13569 whole entry G551D/S1141T): as the sequence (P13569 whole entry Y304F) above, with F304Y, G551D, S1141T counted along it
Test: Inside-out patch-clamp of CFTR currents in transfected CHO cells
MEASURED METRIC: pEC50
Note: pEC50 values are expressed as the negative base-10 logarithm of concentration in M.

Just so you know, measured pEC50 for `CC1(C)Cc2c(sc(NC(=O)c3ccn[nH]3)c2C(N)=O)C(C)(C)O1` came out at 5.76

====

Biological target: S364A-CFTR (Homo sapiens, UniProt P13569, S364A)
Assay: Inside-out patch-clamp of CFTR currents in transfected CHO cells
MEASURED METRIC: EC50
Write the numeric value and follow it with the unit.

Note to self: EC50 of `CC1(C)Cc2c(sc(NC(=O)c3ccn[nH]3)c2C(N)=O)C(C)(C)O1` with S364A-CFTR (Homo sapiens, UniProt P13569, S364A) was 180 nM

====

Target: S263A-CFTR (Homo sapiens, UniProt P13569, S263A)
Test: Inside-out patch-clamp of CFTR currents in transfected CHO cells
MEASURED METRIC: pEC50
Note: pEC50 values are expressed as the negative base-10 logarithm of concentration in M.

The recorded pEC50 for entry `CC1(C)Cc2c(sc(NC(=O)c3ccn[nH]3)c2C(N)=O)C(C)(C)O1` equals 6.57

====

Molecular target: S1141K/G551D-CFTR (Homo sapiens, UniProt P13569, G551D/S1141K)
Sequence (P13569 whole entry G551D/S1141K): as the sequence (P13569 whole entry Y304F) above, with F304Y, G551D, S1141K counted along it
Assay: Inside-out patch-clamp of CFTR currents in transfected CHO cells
MEASURED METRIC: EC50
Give the figure together with its unit, number first.

EC50 reading for CC1(C)Cc2c(sc(NC(=O)c3ccn[nH]3)c2C(N)=O)C(C)(C)O1 [GLPG1837] : 260 nM

====

Biological target: Y304A-CFTR (Homo sapiens, UniProt P13569, Y304A)
Test: Inside-out patch-clamp of CFTR currents in transfected CHO cells
pEC50: −log10 of the molar value.
MEASURED METRIC: pEC50

For this compound ( `CC1(C)Cc2c(sc(NC(=O)c3ccn[nH]3)c2C(N)=O)C(C)(C)O1` ), measured pEC50 is < 5.52

====

Target: F312A-CFTR (Homo sapiens, UniProt P13569, F312A)
Assay: Inside-out patch-clamp of CFTR currents in transfected CHO cells
Assay type: cell-based
Conditions: EC50 for GLPG1837, 2 mM ATP
MEASURED METRIC: pEC50
# pEC50 is unitless: minus log10 of the molar concentration; print number only

Entry `CC1(C)Cc2c(sc(NC(=O)c3ccn[nH]3)c2C(N)=O)C(C)(C)O1` ; pEC50 = 6.40

====

Biological target: F236A-CFTR (Homo sapiens, UniProt P13569, F236A)
Sequence (P13569 whole entry F236A): as the sequence (P13569 whole entry Y304F) above, with F236A, F304Y counted along it
Test: Inside-out patch-clamp of CFTR currents in transfected CHO cells
MEASURED METRIC: EC50 (nM)
Write the value in nM as a bare number.

Just so you know, measured EC50 for `CC1(C)Cc2c(sc(NC(=O)c3ccn[nH]3)c2C(N)=O)C(C)(C)O1` came out at 340

====

Biological target: F931A-CFTR (Homo sapiens, UniProt P13569, F931A)
Test: Inside-out patch-clamp of CFTR currents in transfected CHO cells
MEASURED METRIC: pEC50
The read-out pEC50 is expressed as -log10 of concentration in moles per litre.

// returns pEC50 for `CC1(C)Cc2c(sc(NC(=O)c3ccn[nH]3)c2C(N)=O)C(C)(C)O1` with F931A-CFTR (Homo sapiens, UniProt P13569, F931A); value = 5.94

====

Biological target: Q237A-CFTR (Homo sapiens, UniProt P13569, Q237A)
Sequence (P13569 whole entry Q237A): as the sequence (P13569 whole entry Y304F) above, with Q237A, F304Y counted along it
Experiment: Inside-out patch-clamp of CFTR currents in transfected CHO cells
MEASURED METRIC: pEC50
Give only the number. pEC50 is defined as minus log10 of concentration in molar units.

Entry `CC1(C)Cc2c(sc(NC(=O)c3ccn[nH]3)c2C(N)=O)C(C)(C)O1` : pEC50 on Q237A-CFTR (Homo sapiens, UniProt P13569, Q237A) = 6.04

====

Target: D924N-CFTR (Homo sapiens, UniProt P13569, D924N)
Test: Inside-out patch-clamp of CFTR currents in transfected CHO cells
MEASURED METRIC: EC50 (nM)
Just the number please, in nM, no unit attached.

Sample `CC1(C)Cc2c(sc(NC(=O)c3ccn[nH]3)c2C(N)=O)C(C)(C)O1` , system: D924N-CFTR (Homo sapiens, UniProt P13569, D924N). Its EC50 is 2290
